system: TK-10 renal; experiment: NCI-60 one-dose screen, 48 h; details: 10 µM unless noted
This is part of a sample that, as a whole, favours compounds with a hit. Of some 83,000 tested, about 20% had one in any assay. The source made the active and inactive calls. The calls were made as follows: active = growth percent below 10; inactive = the rest.
Your answer must be one of the following: Yes = active, No = inactive

See these solved cases before continuing.
1. C=C1C(=O)O[C@H]2[C@H]1CC/C(COC(=O)/C=C/C(=O)NCc1ccc(Cn3c(=O)sn(-c4ccccc4)c3=O)cc1)=C\CC[C@@]1(C)O[C@@H]21: Yes
2. COc1cc2cc(Oc3ccc(NC(=O)Nc4cc(C(F)(F)F)cc(C(F)(F)F)c4)cc3)c(C)nc2cc1OCCN1CCCCC1: Yes
3. CCNCCNc1cc(-c2ccc(C(F)(F)F)cc2)c(C#N)c2nc3cc(Cl)c(Cl)cc3n12: Yes

Attention now turns to another entry.
Request: Given `COc1ccc(CN2C(=O)/C(=C\c3cc(OC)c(OC)c(OC)c3)c3ccccc32)cc1` , state the outcome it received in this test.
Result: No
